ASSAYED TARGET: BSA (UniProt P02769)
Sequence (P02769 25-607 limits assumed): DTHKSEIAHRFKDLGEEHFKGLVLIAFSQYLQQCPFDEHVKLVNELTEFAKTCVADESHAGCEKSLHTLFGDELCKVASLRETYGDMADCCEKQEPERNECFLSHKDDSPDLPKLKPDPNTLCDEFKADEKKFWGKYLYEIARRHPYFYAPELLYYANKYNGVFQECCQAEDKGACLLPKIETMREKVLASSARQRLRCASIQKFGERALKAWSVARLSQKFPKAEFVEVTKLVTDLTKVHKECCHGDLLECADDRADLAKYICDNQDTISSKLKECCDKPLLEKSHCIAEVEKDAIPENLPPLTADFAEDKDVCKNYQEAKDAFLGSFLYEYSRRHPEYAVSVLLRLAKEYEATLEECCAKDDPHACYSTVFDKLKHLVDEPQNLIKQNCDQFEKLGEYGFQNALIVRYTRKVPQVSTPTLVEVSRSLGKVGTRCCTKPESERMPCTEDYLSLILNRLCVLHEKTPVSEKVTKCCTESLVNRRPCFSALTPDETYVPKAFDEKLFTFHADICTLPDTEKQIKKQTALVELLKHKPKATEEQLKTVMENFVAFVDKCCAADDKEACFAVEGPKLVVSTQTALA
EXPERIMENT DESCRIPTION: scFv ELISA
MEASURED ENDPOINT: OD450

{"columns": ["BINDER", "OD450"],
 "data": [
  ["PcOxP_DB03_H08 (scFv, V domains shown, scFv in periplasmic extract) VH: EVQLLESGGGLVQPGGSLRLSCAASGGTFSDFYMEWVRQAPGKGLEWVAASRNKANTYTTEYADSVKGRFTISRDNSKNTLYLQMNSLRAEDTAVYYCARDYYGSSYWYFDVWGQGTLVTVSS VL: DIQMTQSPSSLSASVGDRVTITCTASESLYSSKHKVHYLAWYQQKPGKAPKLLIYGSSNRYIGVPSRFSGSGSGTDFTLTISSLQPEDFATYYCAQFYQYPLTFGGGTKVEIK", "0.12 OD450"],
  ["PcOxP_DB04_D07 (scFv, V domains shown, scFv in periplasmic extract) VH: EVQLLESGGGLVQPGGSLRLSCAASGFTFSDYYMEWVRQAPGKGLEWVAASRWKANDYTTEYADSVKGRFTISRDNSKNTLYLQMNSLRAEDTAVYYCARDYYGSSYWYFDVWGQGTLVTVSS VL: DIVMTQSPDSLAVSLGERATINCTASESLYSSKHKVHYLAWYQQKPGQPPKLLIYGASNRYIGVPDRFSGSGSGTDFTLTISSLQAEDVAVYYCAQFYTYPLTFGGGTKVEIK", "0.08 OD450"],
  ["PcOxP_DB01_G05 (scFv, V domains shown, scFv in periplasmic extract) VH: EVQLLESGGGLVQPGGSLRLSCAASGFTFSSYYMEWVRQAPGKGLEWVAASRNKANEYTTEYADSVKGRFTISRDNSKNTLYLQMNSLRAEDTAVYYCARDYYGSSYWYFDVWGQGTLVTVSS VL: DIVMTQSPDSLAVSLGERATINCTASESLYSSKHKVHYLAWYQQKPGQPPKLLIYGASNRYIGVPDRFSGSGSGTDFTLTISSLQAEDVAVYYCANFYSYPLTFGGGTKVEIK", "0.08 OD450"],
  ["PcOxP_DB02_E10 (scFv, V domains shown, scFv in periplasmic extract) VH: EVQLLESGGGLVQPGGSLRLSCAASGFTFSDQYMEWVRQAPGKGLEWVAASRNKANDYQTEYADSVKGRFTISRDNSKNTLYLQMNSLRAEDTAVYYCARDYYGSSYWYFDVWGQGTLVTVSS VL: DIQMTQSPSSLSASVGDRVTITCTASESLYSGKHKVHYLAWYQQKPGKAPKLLIYGASNLQIGVPSRFSGSGSGTDFTLTISSLQPEDFATYYCAQFYYYPLTFGGGTKVEIK", "0.09 OD450"],
  ["PcOxP_DB04_A10 (scFv, V domains shown, scFv in periplasmic extract) VH: EVQLLESGGGLVQPGGSLRLSCAASGDTFSDFYMEWVRQAPGKGLEWVAASRNKWNDYTTEYADSVKGRFTISRDNSKNTLYLQMNSLRAEDTAVYYCARDYYGSSYWYFDVWGQGTLVTVSS VL: DIQMTQSPSSLSASVGDRVTITCTASESLYSSKHKVHYLAWYQQKPGKAPKLLIYGASNRQIGVPSRFSGSGSGTDFTLTISSLQPEDFATYYCAQFYSYPLTFGGGTKVEIK", "0.11 OD450"],
  ["PcOxP_DB02_B07 (scFv, V domains shown, scFv in periplasmic extract) VH: EVQLLESGGGLVQPGGSLRLSCAASGFTFSDQYMEWVRQAPGKGLEWVAASRNNANDYTTEYADSVKGRFTISRDNSKNTLYLQMNSLRAEDTAVYYCARDYYGSSYWYFDVWGQGTLVTVSS VL: DIVMTQSPDSLAVSLGERATINCTASESLYSSKHKVHYLAWYQQKPGQPPKLLIYGASNRQIGVPDRFSGSGSGTDFTLTISSLQAEDVAVYYCAQFYHYPLTFGGGTKVEIK", "0.06 OD450"],
  ["PcOxP_DB02_E12 (scFv, V domains shown, scFv in periplasmic extract) VH: EVQLLESGGGLVQPGGSLRLSCAASGFGFSDFYMEWVRQAPGKGLEWVAASRNKANDYTTEYADSVKGRFTISRDNSKNTLYLQMNSLRAEDTAVYYCARDYYGSSYWYFDVWGQGTLVTVSS VL: DIVMTQSPDSLAVSLGERATINCTASESLYSSKHKVHYLAWYQQKPGQPPKLLIYGASNRYIGVPDRFSGSGSGTDFTLTISSLQAEDVAVYYCAEFYSYPLTFGGGTKVEIK", "0.06 OD450"],
  ["PcOxP_DB04_H03 (scFv, V domains shown, scFv in periplasmic extract) VH: EVQLLESGGGLVQPGGSLRLSCAASGFPFSDFYMEWVRQAPGKGLEWVAASRNKANDYTTEYADSVKGRFTISRDNSKNTLYLQMNSLRAEDTAVYYCARDYYGSSYWYFDVWGQGTLVTVSS VL: DIQMTQSPSSLSASVGDRVTITCRASESLYSSLHKYLAWYQQKPGKAPKLLIYGASNLQIGVPSRFSGSGSGTDFTLTISSLQPEDFATYYCAQFYSYPLTFGGGTKVEIK", "0.1 OD450"]
]}

# batch size: 2; output OD450 per entry
1. PcOxP_DB03_D01 (scFv, V domains shown, scFv in periplasmic extract) VH: EVQLLESGGGLVQPGGSLRLSCAASGFTFSDEYMEWVRQAPGKGLEWVAASRNKANDYTTEYADSVKGRFTISRDNSKNTLYLQMNSLRAEDTAVYYCARDYYGSSYWYFDVWGQGTLVTVSS VL: DIQMTQSPSSLSASVGDRVTITCTASESLYSSKHKVHYLAWYQQKPGKAPKLLIYGASNRYIGVPSRFSGSGSGTDFTLTISSLQPEDFATYYCAQFYYYPLTFGGGTKVEIK
2. PcOxP_DB04_F11 (scFv, V domains shown, scFv in periplasmic extract) VH: EVQLLESGGGLVQPGGSLRLSCAASGFTGSDFYMEWVRQAPGKGLEWVAASRGKGNSYTTEYADSVKGRFTISRDNSKNTLYLQMNSLRAEDTAVYYCARDYYGSSTWYFDVWGQGTLVTVSS VL: DIQMTQSPSSLSASVGDRVTITCTASESLYSSKHKVHYLAWYQQKPGKAPKLLIYGASNRYAGVPSRFSGSGSGTDFTLTISSLQPEDFATYYCGQFYSYPLTFGGGTKVEIK

1: 0.08 OD450; 2: 0.1 OD450
